Test system: Rattus norvegicus
Test: Gastrointestinal toxicity in Rattus norvegicus albino (rat) assessed as ulcer index at 0.9 mg/100 g body weight, po qd
Format: organism-based
Conditions: in vivo
Measured attribute: UI

O=C(Cc1nc2ccccc2[nH]c1=O)Nn1c(-c2ccc(Cl)cc2)csc1=S    0
CCn1c(S)nnc1Cc1nc2ccccc2[nH]c1=O    0
O=C(Cc1nc2ccccc2[nH]c1=O)Nn1c(-c2ccccc2)csc1=S    240
COc1ccc2c(c1)c(CC(=O)O)c(C)n2C(=O)c1ccc(Cl)cc1 [INDOMETHACIN]    500
O=c1[nH]c2ccccc2nc1Cc1nnc(S)o1    240
Cc1ccc(-c2cc(C(F)(F)F)nn2-c2ccc(S(N)(=O)=O)cc2)cc1 [CELECOXIB]    0
Nn1c(S)nnc1Cc1nc2ccccc2[nH]c1=O    0
O=c1[nH]c2ccccc2nc1Cc1nnc(S)n1-c1ccccc1    0
Cc1ccc(-c2csc(=S)n2NC(=O)Cc2nc3ccccc3[nH]c2=O)cc1    0
